- Tested on: MT4
- assayDetails: Selectivity index for CC50 (cytotoxic concentration based on reduction of viability of mock-infected MT-4 cells) to that of EC50 against HIV-2
- Type: functional
propertyMeasured: Selectivity index
Just the number, please, no unit after it.

Take a look at these entries with their results.
CCCCCC(=O)OCC1OC(OC2C(C(=O)[O-])OC(OC3C(NC(C)=O)C(OC4C(C(=O)[O-])OC(C)C(OC(=O)CCCCC)C4O)OC(COC(=O)CCCCC)C3OS(=O)(=O)[O-])C(OC(=O)CCCCC)C2OC(=O)CCCCC)C(NC(C)=O)C(OC)C1OS(=O)(=O)[O-].[Na+].[Na+].[Na+].[Na+] (stereo unspecified) | 17.5
COC1C(NC(C)=O)C(OC2C(C(=O)[O-])OC(OC3C(NC(C)=O)C(OC4C(C(=O)[O-])OC(C)C(OC(C)=O)C4O)OC(COC(C)=O)C3OS(=O)(=O)[O-])C(OC(C)=O)C2OC(C)=O)OC(COC(C)=O)C1OS(=O)(=O)[O-].[Na+].[Na+].[Na+].[Na+] (stereo unspecified) | 5.7

Note: attention shifts to another entry.
Prompt: Data request, read-out Selectivity index, for COC1C(NC(C)=O)C(OC2C(C(=O)[O-])OC(OC3C(NC(C)=O)C(OC4C(C(=O)[O-])OC(C)C(OC(=O)CCC(=O)[O-])C4O)OC(COC(=O)CCC(=O)[O-])C3OS(=O)(=O)[O-])C(OC(=O)CCC(=O)[O-])C2OC(=O)CCC(=O)[O-])OC(COC(=O)CCC(=O)[O-])C1OS(=O)(=O)[O-].[Na+].[Na+].[Na+].[Na+].[Na+].[Na+].[Na+].[Na+].[Na+] (stereo unspecified)
Response: 2

These entries and their values trace back to ChEMBL document CHEMBL1126896.
